molecular target: PRMT5/MEP50 complex (Homo sapiens (Human)); experiment: PRMT5:MEP50 HotSpot Assay (full-length histone H2A substrate, plus and minus MTA); type: biochemical; conditions: IC50 + 2 μM MTA, in the presence of 2 μM MTA
pIC50: −log10 of the molar value.
measurement-label: pIC50

[[record]]
compound = "NCc1n[nH]c(=O)c2ccc(-c3cnn4c3CN(c3ccccc3)CC4)cc12"
number = 5.57


a. Cn1cc(-c2ccc(-c3c(-c4ccc5c(=O)[nH]nc(CN)c5c4)cnn3C)c(C#N)c2)cn1
b. CCc1c[nH]c2ncc(-c3ccc4c(=O)[nH]nc(CN)c4c3)cc12
c. COc1ccc(-c2c(-c3ccc4c(=O)[nH]nc(CN)c4c3)cnn2C)c(C#N)c1C
Reorder the items by pIC50, least to greatest. // ordering of labels required in reply
b, c, a

a. CCc1cccc(-c2c(-c3cc(Cl)c4c(=O)[nH]nc(CN)c4c3)cnn2C)c1C#N
b. Cn1ncc(-c2ccc3c(=O)[nH]nc(CN)c3c2)c1-c1ccccc1Cl
Field: lower pIC50 | Options: a / b Your answer should be the label of the entry you select.
b
(b: 5.93, a: 6.38)

a. COc1ccc(Oc2cncc(-c3ccc4c(=O)[nH]nc(CN)c4c3)c2)c(OC)c1
b. COc1cc(C#N)c(-c2c(-c3ccc4c(=O)[nH]nc(CN)c4c3)cnn2C)cc1OC
Of a and b , whose reported pIC50 is the larger number? Field: selected label. Fill in the label of the entry you choose.
a
(a: 6.07, b: 5.78)

---

molecular target: PRMT5/MEP50 complex (Homo sapiens (Human)); assay: PRMT5:MEP50 FlashPlate Assay (histone H4 peptide substrate, plus and minus MTA); assay type: biochemical; details: in the absence of MTA, read-out: IC50
pIC50: −log10 of the molar value.
measurement-label: pIC50

Illustrative cases are given below, each with its answer.
[[record]]
smiles_structure = "NCc1n[nH]c(=O)c2ccc(-c3cncc(Cl)c3)cc12"
number = 5.45

[[record]]
smiles_structure = "Cn1ncc(-c2ccc3c(=O)[nH]nc(CN)c3c2)c1-c1cc(Cl)ccc1C#N"
number = 6.94

[[record]]
smiles_structure = "NCc1n[nH]c(=O)c2ccc(-c3cnn4c3CN(C(=O)C3CC3)CC4)cc12"
number = 5.72


P. NCc1n[nH]c(=O)c2ccc(-c3cncc(OCC4CC4)c3)cc12
Q. Cc1cc(-c2ccc3c(=O)[nH]nc(CN)c3c2)[nH]n1
Kindly compare P with Q and tell me which has the lower pIC50 figure. Let me know the label of the one you choose.
Q
(Q: 4.40, P: 5.87)

---

target: PRMT5/MEP50 complex (Homo sapiens (Human), UniProt O14744); experiment: PRMT5:MEP50 HotSpot Assay (full-length histone H2A substrate, plus and minus MTA); assay type: biochemical; details: IC50 + 2 μM MTA, in the presence of 2 μM MTA
Sequence (O14744 2-637): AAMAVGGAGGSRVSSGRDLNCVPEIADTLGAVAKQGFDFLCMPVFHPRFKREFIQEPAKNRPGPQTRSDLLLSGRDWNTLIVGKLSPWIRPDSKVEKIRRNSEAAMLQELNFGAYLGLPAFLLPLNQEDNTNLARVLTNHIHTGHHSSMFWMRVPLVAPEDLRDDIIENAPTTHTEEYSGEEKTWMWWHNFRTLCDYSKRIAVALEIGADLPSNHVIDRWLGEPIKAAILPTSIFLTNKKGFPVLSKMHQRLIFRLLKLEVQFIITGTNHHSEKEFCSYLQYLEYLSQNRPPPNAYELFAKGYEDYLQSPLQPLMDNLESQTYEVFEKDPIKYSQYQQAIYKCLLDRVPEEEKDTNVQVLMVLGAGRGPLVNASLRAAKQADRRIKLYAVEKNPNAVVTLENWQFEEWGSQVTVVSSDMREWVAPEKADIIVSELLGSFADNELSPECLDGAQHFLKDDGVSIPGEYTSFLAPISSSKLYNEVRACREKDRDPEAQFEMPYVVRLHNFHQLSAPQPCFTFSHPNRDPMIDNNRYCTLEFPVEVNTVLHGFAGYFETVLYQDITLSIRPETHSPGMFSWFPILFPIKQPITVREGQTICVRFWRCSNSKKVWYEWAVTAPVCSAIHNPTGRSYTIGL
Sequence (Q9BQA1 2-342 partner): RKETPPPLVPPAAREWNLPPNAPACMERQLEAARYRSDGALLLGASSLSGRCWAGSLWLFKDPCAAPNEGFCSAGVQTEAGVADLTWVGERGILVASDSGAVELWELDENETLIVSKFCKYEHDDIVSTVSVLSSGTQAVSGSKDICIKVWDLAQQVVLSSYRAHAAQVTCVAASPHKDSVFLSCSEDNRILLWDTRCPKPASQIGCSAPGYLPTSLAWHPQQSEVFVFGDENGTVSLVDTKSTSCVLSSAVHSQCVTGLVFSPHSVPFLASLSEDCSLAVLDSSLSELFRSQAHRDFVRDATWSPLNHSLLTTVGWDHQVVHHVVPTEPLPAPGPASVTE
measurement-label: IC50 (nM)

Past entries and their recorded results:
[[record]]
smiles_structure = "Cn1ncc(-c2ccc3c(=O)[nH]nc(CN)c3c2)c1-c1cc(C2CC2)ccc1C#N"
assayed_system = "PRMT5/MEP50 complex (Homo sapiens (Human), UniProt O14744)"
number = 707

[[record]]
smiles_structure = "Cc1cc(C2CC2)cc(-c2c(-c3ccc4c(=O)[nH]nc(CN)c4c3)cnn2C)c1C#N"
assayed_system = "PRMT5/MEP50 complex (Homo sapiens (Human), UniProt O14744)"
number = 182

[[record]]
smiles_structure = "Cn1ncc(-c2ccc3c(=O)[nH]nc(CN)c3c2)c1-c1ccc2ccccc2n1"
assayed_system = "PRMT5/MEP50 complex (Homo sapiens (Human), UniProt O14744)"
number = 1420

[[record]]
smiles_structure = "Cc1c[nH]c2ncc(-c3ccc4c(=O)[nH]nc(CN)c4c3)cc12"
assayed_system = "PRMT5/MEP50 complex (Homo sapiens (Human), UniProt O14744)"
number = 3170


P. CN(C)c1c(-c2ccc3c(=O)[nH]nc(CN)c3c2)cnn1C
Q. Cn1ncc(-c2ccc3c(=O)[nH]nc(CN)c3c2)c1-c1ccccc1C#N
R. Cn1ncc(-c2ccc3c(=O)[nH]nc(CN)c3c2)c1-c1ccc(Cl)cc1C#N
Sort ascending by IC50. Write the labels out in the order the request specifies.
R, Q, P
(R: 892 nM, Q: 1510 nM, P: 4440 nM)
